# Test target: T1, V3-12 Fab
# T1 construct: soluble Fab in SPR
# T1 sequence (VH, as listed by the source, chain 1 of 2): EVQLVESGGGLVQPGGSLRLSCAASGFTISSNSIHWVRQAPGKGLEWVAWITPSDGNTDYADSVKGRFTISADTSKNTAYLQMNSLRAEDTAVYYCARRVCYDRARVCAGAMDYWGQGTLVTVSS
# T1 sequence (VL, as listed by the source, chain 2 of 2): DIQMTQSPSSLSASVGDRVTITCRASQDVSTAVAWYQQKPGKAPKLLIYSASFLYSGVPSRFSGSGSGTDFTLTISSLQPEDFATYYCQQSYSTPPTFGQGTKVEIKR
# Test method notes: phage competition ELISA, ECD in solution
Endpoint name: IC50

Reported IC50 for mouse BR3 extracellular domain (receptor, also called mBR3-ECD; mBR-ECD) MGARRLRVRSQRSRDSSVPTQCNQTECFDPLVRNCVSCELFHTPDTGHTSSLEPGTALQPQEGS was 57 nM
